Tested on: AR mRNA
test-description: Antisense inhibition of human AR in HuVEC cells, single concentration (electroporation, qRT-PCR RTS3559)
Type: cell-based
condition-set: Table 27, 1,000 nM oligonucleotide, electroporation, approximately 24 hours, relative to untreated control
Oligonucleotides are written 5' to 3', each unit as a sugar letter and its base; * is a phosphorothioate linkage, no mark a phosphodiester; rarer units and linkages stand in square brackets, end groups in braces. Plain capitals give the bases only. k = constrained ethyl (cEt); [5mC] = 5-methylcytosine; d = 2'-deoxy (DNA)
Class fulfilled: % inhibition at least 60%. Class not fulfilled: % inhibition below 60%.

Take a look at these entries with their results.
[[record]]
substance = "549372 (kA*kA*kG*dT*dT*dG*dT*dA*dG*dT*dA*dG*dT*k[5mC]*kG*k[5mC]) [compound 549372]"
discrete_label = "fulfilled"

[[record]]
substance = "584495 (kA*kT*kG*dG*dT*dT*dG*dT*d[5mC]*d[5mC]*dT*dG*dT*kA*k[5mC]*kA; antisense) [compound 584495]"
discrete_label = "not fulfilled"

[[record]]
substance = "584468 (k[5mC]*kA*kT*dT*dG*dT*dA*d[5mC]*dT*dA*dT*dG*d[5mC]*k[5mC]*kA*kG) [compound 584468]"
discrete_label = "fulfilled"

[[record]]
substance = "584469 (kT*kT*kT*dG*dG*dT*dA*dA*d[5mC]*dA*dT*dT*dA*kG*kG*k[5mC]; antisense) [compound 584469]"
discrete_label = "fulfilled"


Shift focus to the following entry.
Evaluate 549458 (kG*kT*kT*dG*dA*dT*dT*dT*dA*dA*dT*dG*dG*kT*kT*kG) [compound 549458] : % inhibition at minimum 60%? fulfilled

---

Here, each record is paired with measured Kidney weight data.
condition-set: cynomolgus monkey, in vivo, sc, 40 mg/kg
# include the unit after the value

Consider the worked cases shown below.
[[record]]
substance = "ISIS 584269: antisense compound targeted to human AR (CCTTATGGATGCTGCT; 3-10-3 (S)-cEt gapmer, further chemistry not given here)"
measured = "13 g"

[[record]]
substance = "TGATTTAATGGTTGCA [ISIS 569213] (cEt/MOE gapmer chemistry, further chemistry not given here)"
measured = "16 g"

[[record]]
substance = "TTGATTTAATGGTTGC [ISIS 579671] (cEt/MOE gapmer chemistry, further chemistry not given here)"
measured = "14 g"

[[record]]
substance = "ISIS 584163: antisense compound targeted to human AR (GAACATTATTAGGCTA; 3-10-3 (S)-cEt gapmer, further chemistry not given here)"
measured = "15 g"

[[record]]
substance = "ISIS 584149: antisense compound targeted to human AR (GTCAATATCAAAGCAC; 3-10-3 (S)-cEt gapmer, further chemistry not given here)"
measured = "13 g"


Next item in the queue.
The value of Kidney weight measured for the substance GATTTAATGGTTGCAA (cEt gapmer chemistry, further chemistry not given here) [ISIS 586124] turned out to be 14 g

---

System: AR mRNA
test-description: Dose-dependent antisense inhibition of human AR in HuVEC cells (electroporation, qRT-PCR RTS3559, IC50)
Format: cell-based
condition-set: Table 32; 750.0 nM, HuVEC, electroporation, approximately 16 hours
Oligonucleotides are written 5' to 3', each unit as a sugar letter and its base; * is a phosphorothioate linkage, no mark a phosphodiester; rarer units and linkages stand in square brackets, end groups in braces. Plain capitals give the bases only. k = constrained ethyl (cEt); [5mC] = 5-methylcytosine; d = 2'-deoxy (DNA)
Attribute: percent inhibition of AR, 750.0 nM
# unit: % | format: bare number

[[record]]
substance = "583834 (kA*kG*k[5mC]*dT*dG*dT*dT*d[5mC]*d[5mC]*d[5mC]*d[5mC]*dT*dG*kG*kA*k[5mC]; antisense) [compound 583834]"
measured = 73


For the substance 583836 (k[5mC]*k[5mC]*kG*dA*dA*dG*d[5mC]*dT*dG*dT*dT*d[5mC]*d[5mC]*k[5mC]*k[5mC]*kT; antisense) [compound 583836] , the measured percent inhibition of AR, 750.0 nM on AR mRNA was 67

Item: 583850 (kG*kG*kA*d[5mC]*dG*d[5mC]*dA*d[5mC]*dA*dG*d[5mC]*dG*dG*kG*kT*kG; antisense) [compound 583850] | System: AR mRNA | percent inhibition of AR, 750.0 nM: 54
